test system: P. falciparum 3D7 growth, pLDH absorbance; experiment: blood-stage malaria parasite growth potency – strain 3D7, dose response (AID 2305)
measurement kind: IC50 (nM)
Express your answer in nM, writing the number without its unit.

Illustrative cases are given below, each with its answer.
1) O=[N+]([O-])c1cnc(Nc2ccccc2O)nc1Nc1ccccc1O | 900
2) COc1ccccc1CNC(=O)c1cc(Br)cc(N2CCN(c3ccncc3)CC2)c1 | 950
3) CCCCC1(c2ccc(F)cc2)NC(=O)N(CC(=O)c2cc(C)n(Cc3ccco3)c2C)C1=O (stereo not given) | 980
4) COc1cc2c(cc1NC(=O)CN1CCN(C(=O)c3ccco3)CC1)oc1ccccc12 | 420
5) Cc1[nH]c2ccc(O)cc2c1C1CCN(CCCCCNC(=O)/C=C/c2ccc(Cl)c(Cl)c2)CC1 | 770

Q) Answer with reported IC50 of CN1CCC(NCc2ccc(-c3ccc(C(F)(F)F)cc3)cc2)CC1
A) 800

Q) Report IC50 for CC(C)CN(c1nc(C(=O)NNC(=O)[C@H](CC2CC2)NC(=O)c2cc3cc(OCCN4CCCCC4)ccc3o2)cs1)C1CC1
A) 210

Q) Tell me measured IC50 for CCCCOc1cc2[nH]cc(C(=O)OCC)c(=O)c2cc1OCCCC please.
A) 200

Q) Item Fc1ccc(CN2CCN(c3ncnc4cc(-c5ccccc5)sc34)CC2)cc1 : provide IC50
A) 1020

Q) Identify IC50 associated with the compound CC1CCC2(CC1)N=C(N)N=C(N)N2OCc1ccc(Br)c2ccccc12 (stereo not given)
A) 220

Q) Hello, please tell me recorded IC50 for this one: O=C(Nc1ccc(-c2cccc(-c3nc4ccc(C(F)(F)F)cc4[nH]3)c2)cc1)c1cccnc1
A) 720

Q) Supply measured IC50 of O=C(Nc1ccc(OCc2ccccc2)cc1)c1nc2ccccc2nc1Cl in your reply.
A) 250

----------
system: P. falciparum 3D7 growth, pLDH absorbance; test: blood-stage malaria parasite growth potency – strain 3D7, dose response (AID 2305)
Catalogue of IC50 values
Your answer is read as nM, so omit the unit and give the number.

Record excerpt, results attached:
1. c1cc2nc(CCc3nc4ccc(C5=N[C@H]6CCCC[C@H]6N5)cc4[nH]3)[nH]c2cc1C1=N[C@@H]2CCCC[C@@H]2N1 | 230
2. CN(c1ccc(NC(=O)c2ccc(F)cc2)cc1)C1CCN(Cc2cccc(F)c2)C1 (configuration not stated) | 1410
3. CCCCCN1CCC(NS(=O)(=O)c2cccc(C(=O)Nc3cccc(C(F)(F)F)c3)c2)C1 (configuration not stated) | 830
4. CN(C1CCC(NC(=O)/C=C/c2ccccc2)CC1)C1CC2(CCN(C(=O)OC(C)(C)C)CC2)c2ccccc21 (configuration not stated) | 820
5. CCN(CC)CCNc1ccnc2[nH]c3ccc([N+](=O)[O-])cc3c12 | 200

Q) Input CC(=O)Nc1ccc(OCCCCN(Cc2ccccc2OC(F)(F)F)c2ccc(C(F)(F)F)c(C#N)c2)c(Cl)c1 , output reported IC50.
A) 530

Q) Answer with reported IC50 of c1ccc(C23N=C(Nc4nc5ccccc5[nH]4)NC2(c2ccccc2)NC(Nc2nc4ccccc4[nH]2)=N3)cc1 (configuration not stated)
A) 280

Q) Return IC50 for the following compound: COc1ccccc1NC(=O)Nc1cccc(-c2ccc(-c3nc4ccc(C(F)(F)F)cc4[nH]3)cc2)c1
A) 310

Q) Give the measured IC50 for O=C(/C=C/c1ccc(Cl)c(Cl)c1)N1CCC(CN2CCC(c3c(-c4ccc(F)cc4)[nH]c4ccccc34)CC2)CC1
A) 170

Q) Provide measured IC50 value, entry: Cn1cccc1CCNCc1ccc(-c2cccc(-c3nc4ccc(F)cc4[nH]3)c2)cc1
A) 1220

Q) Please supply the value of reported IC50 for the item Cn1c(-c2ccccc2)cc2c3c(=O)cc(C(F)(F)F)[nH]c3ccc21
A) 850

----------
tested on: P. falciparum 3D7 growth, pLDH absorbance; experiment: blood-stage malaria parasite growth potency – strain 3D7, dose response (AID 2305)
measurement kind: IC50 (nM)
The reply should contain only the number, in nM.

1. COc1ccc2nccc(N3CCC(NCCNCc4ccc5c(n4)NC(=O)CO5)C3)c2n1 (stereo not given) | 860
2. CN1CCN(c2ccc(-c3cccc(NC(=O)c4ccc5ccccc5c4)c3)nn2)CC1 | 380
3. CC1(C)CC(=O)c2c(O)cc(OCc3ccncc3)cc2O1 | 1040
4. COc1ccc(F)cc1-c1ccccc1CNC(=O)CN(C)S(=O)(=O)c1cc(C)cc(Cl)c1C | 660
5. CC(C)COc1ccc(Cl)cc1Cc1ccc(-c2nc3c(F)cccc3[nH]2)o1 | 810
6. FC(F)(F)c1ccc2c(NCCNc3ccnc4cc(C(F)(F)F)ccc34)ccnc2c1 | 30

Q) Give the measured IC50 for CCCCCCNC(=O)C(N)CCCC(N)C(=O)NCCCCCC (stereo not given)
A) 160

Q) Assign IC50 to the following record: CC1CN(Cc2ccc(-c3ccc(-c4nc5ccc(F)cc5[nH]4)s3)cc2)CC(C)O1 (stereo not given)
A) 880

Q) Dear colleague, please send me the reported IC50 for COC(=O)Nc1cc(C(F)(F)F)ccc1N1CCCC(NS(=O)(=O)c2ccc(C(C)(C)C)cc2)C1 (stereo not given) when you can.
A) 380

Q) State its IC50: C[C@H]1CN(Cc2cccc(-c3cc(CNC(=O)c4cccc(CN5CCN(C/C=C/c6ccccc6)CC5)c4)ccc3F)c2)CCN1
A) 850

Q) Look up and report measured IC50 for this entry: CCCCCCCCCCNCC(O)c1ccc(O)c(C(=O)OC)c1 (stereo not given)
A) 720

Q) Specify reported IC50 for the molecule shown: COc1cc2nccc(Nc3ccc(OCc4ccc(NC(C)=O)cc4)cc3)c2cc1OC
A) 550

----------
tested on: P. falciparum 3D7 growth, pLDH absorbance; assay: blood-stage malaria parasite growth potency – strain 3D7, dose response (AID 2305)
// reported pIC50 for each item listed
pIC50 here: minus log base 10 of the concentration, concentration in moles per litre.

1. Cc1cc(N[C@@H](CC(C)C)C(=O)NCCOc2ccccc2)nc(NCCc2ccccc2)n1 | 5.82
2. COc1ccc(C#Cc2ccc(-c3c(C)[nH]c(C)c(Cl)c3=O)cc2)cc1 | 7.15
3. O=C(NCCc1cccc(F)c1)c1ccc(N2CCN(c3ccncc3)CC2)cn1 | 5.99
4. COc1ccc2ncc(F)c([C@@H](O)CN3CCC(NCc4cc5c(cn4)OCS5)CC3)c2c1 | 6.85
5. O=C(CCN1C(=O)c2ccccc2C1=O)N1CCN(CC=Cc2ccccc2)CC1 | 6.27

Q) Return value of pIC50 for input COc1ccc2nccc(N3CCC(SCCNCc4ccc5c(n4)NC(=O)CS5)C3)c2n1 (stereo unspecified) , no commentary.
A) 6.60

Q) For the compound FC(F)c1nc2ccccc2n1-c1nc(N2CCOCC2)nc(N2CCOCC2)n1 , give its measured pIC50 value.
A) 6.12

Q) For the compound O=C(NCc1ccc(F)cc1)Nc1ccc(-c2cccc(-c3nc4ccc(C(F)(F)F)cc4[nH]3)c2)cc1 , give its reported pIC50.
A) 6.02

Q) Recall and state the measured pIC50 for O=C(Nc1cccc(-c2cccc(-c3nc4ccc(F)cc4[nH]3)c2)c1)c1csnn1 .
A) 6.10

Q) Check the records and state pIC50 for Cc1[nH]c2cc(F)ccc2c1C1=CCN(CCCCC2(C)C(=O)Nc3ccccc32)CC1 (stereo unspecified)
A) 6.54

Q) Assign pIC50 to the following record: Fc1ccccc1COc1ccc(Nc2ncnc3ccc(I)cc23)cc1Cl
A) 6.03

Q) Given the compound O=C(/C=C/c1ccccc1)N1CCOC(CCN2CCC(c3ccccc3)CC2)(c2ccc(Cl)c(Cl)c2)C1 (stereo unspecified) , write its reported pIC50.
A) 6.28

Q) Output measured pIC50 for this item: CCOc1cc2ccccc2cc1CNCCCCCCNCc1cc2ccccc2cc1OCC
A) 6.01

Q) For the compound Cc1cc(N[C@@H](CC(C)C)C(=O)Nc2ccccc2)nc(NCC2CCCCC2)n1 , give its measured pIC50 value.
A) 6.06

Q) Please supply the value of reported pIC50 for the item O=C(Nc1cc(Cl)cc(Cl)c1)Nc1ccnc2ccccc12
A) 6.12

Q) Tell me its pIC50 given CC(Cc1ccc(SCCSc2ccccc2)cc1)NCC(O)c1cccc(Cl)c1 (stereo unspecified) as the entry.
A) 6.43

Q) Supply recorded pIC50 for O=C(Nc1ccc(Cl)cc1)c1ccc(CN2CCCN(Cc3cccc(O)c3)CC2)cc1 here.
A) 6.41

Q) Look up pIC50 of CC(C)(C)CC(C)(C)c1ccc(O)c(CNC2CCCCC2)c1 and report it.
A) 7.22

Q) Tell me its pIC50 given Cc1c(CCNC(=O)CCCN2CC(C)CC(C)C2)c2ccccc2n1C (stereo unspecified) as the entry.
A) 5.90

Q) Give the reported value of pIC50 for this record: CC(=O)Nc1ccccc1OCc1cc2cc(C(=O)N3CCC(N4C(=O)OCc5ccccc54)CC3)ccc2o1
A) 6.62

Q) Give me measured pIC50, please, for this compound: Cc1cc(Cl)ccc1N(Cc1ccccc1)c1ccnc(Cl)n1
A) 6.07
